- Experimental System: Recombinant human HSD17B13 (Homo sapiens (Human), UniProt Q7Z5P4)
- Sequence (Q7Z5P4 20-300): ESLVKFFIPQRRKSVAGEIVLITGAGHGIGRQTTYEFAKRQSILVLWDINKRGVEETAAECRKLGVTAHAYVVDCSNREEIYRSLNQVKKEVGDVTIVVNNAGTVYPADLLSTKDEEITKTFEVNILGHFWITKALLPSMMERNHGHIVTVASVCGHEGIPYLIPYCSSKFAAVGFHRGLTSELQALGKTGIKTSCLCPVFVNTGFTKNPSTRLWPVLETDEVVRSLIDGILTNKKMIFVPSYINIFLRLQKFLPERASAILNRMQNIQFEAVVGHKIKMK
- Assay: HSD17B13 rapid-fire mass spectrometry assay (RF/MS assay)
- Assay Setup: inhibition of HSD17B13; LTB4 10 μM, NAD+ 0.5 mM, RT 3 h; IC50 ranges A-E
pIC50: −log10 of the molar value.
pIC50 for assorted molecules
Assay Readout: pIC50

Molecule	Assay Readout	Measured Result
COc1cc(C(=O)O)ccc1NS(=O)(=O)c1csc(-c2ccc([C@H]3CC[C@@H](C(F)(F)F)CC3)cc2)n1 [Example 608]	pIC50	6.30 to 7.00
COc1cc(C(=O)O)c(F)cc1NS(=O)(=O)c1csc(-c2cc(F)c(C3=CCC(C)(C)CC3)c(F)c2)n1 [Example 516]	pIC50	6.30 to 7.00
CN(C)c1cc(C(=O)O)ccc1NS(=O)(=O)c1csc(-c2ccc(C3CCC(C)(C)CC3)cc2C(F)(F)F)n1 [Example 697]	pIC50	4.00 to 6.00
CC[C@H]1CC[C@@H](c2ccc(-c3nc(S(=O)(=O)Nc4ccc(C(=O)O)cc4OC)co3)cc2)CC1 [Example 481]	pIC50	6.30 to 7.00
O=C(O)c1ncc(NS(=O)(=O)c2cnc(-c3ccc(F)cc3)s2)cn1 [Example 106]	pIC50	4.00 to 6.00
COc1cc(C(=O)O)c(F)cc1NS(=O)(=O)c1csc(-c2ccc(C3CCC(C)(C)CC3)c3[nH]ncc23)n1 [Example 541]	pIC50	> 7.00
COc1cc(C(=O)O)c(F)cc1NS(=O)(=O)c1ccn(-c2ccc([C@H]3CC[C@H](C(F)(F)F)CC3)cc2)n1 [Example 692]	pIC50	6.30 to 7.00

====

- Experimental System: Recombinant human HSD17B13 (Homo sapiens (Human), UniProt Q7Z5P4)
- Assay: HSD17B13 rapid-fire mass spectrometry assay (RF/MS assay)
- Assay Setup: inhibition of HSD17B13; LTB4 10 μM, NAD+ 0.5 mM, RT 3 h; IC50 ranges A-E

Compound	IC50
COc1cc(C(=O)O)c(F)cc1NS(=O)(=O)c1csc(-c2ccc(-c3cccnc3)cc2)n1 [Example 526]	100 to 500 nM
COc1cc(C(=O)O)ccc1NS(=O)(=O)c1ccc(-c2ccc(C3CCCCC3)cc2)cc1OC(F)(F)F [Example 325]	1000 to 100000 nM
COc1cc(C(=O)O)ccc1NS(=O)(=O)c1cccc(-c2ccc([C@H]3CC[C@H](C(C)(C)C)CC3)cc2)c1F [Example 478]	100 to 500 nM
COc1cc(C(=O)O)ccc1NS(=O)(=O)c1csc(N2CCN(c3ccc(OC(F)(F)F)cc3)C(=O)C2)n1 [Example 266]	1000 to 100000 nM
COc1cc(C(=O)O)ccc1NS(=O)(=O)c1csc(-c2ccc(O)cc2)n1 [Example 128]	100 to 500 nM
COc1cc(C(=O)O)ccc1NS(=O)(=O)N1CCC(c2nnn[nH]2)CC1 [Example 313]	1000 to 100000 nM
COc1cc(C(=O)O)ccc1NS(=O)(=O)c1csc(-c2ccc(C3CCC(C(F)(F)F)CC3)cc2)n1 (centres unmarked) [Example 348]	< 100 nM
CCC[C@H]1CC[C@H](c2ccc(-c3nc(S(=O)(=O)Nc4cc(F)c(C(=O)O)cc4OC)cs3)cc2)CC1 [Example 715]	< 100 nM
CC1(C)CCC(c2ccc(-c3nc(S(=O)(=O)Nc4ccc(C(=O)O)cc4)cs3)cc2)CC1 [Example 660]	100 to 500 nM
COc1cc(C(=O)O)c(F)cc1NS(=O)(=O)c1csc(-c2ccc(C3=CCC(C)(C)CC3)c(OC)c2F)n1 [Example 545]	< 100 nM
COc1cc(C(=O)O)c(F)cc1NS(=O)(=O)c1csc(-c2ccc(-c3ccc(C45CC6C[C@H](C4)C[C@H](C6)C5)cc3)cc2OC)n1 [Example 744]	100 to 500 nM
COc1cc(C(=O)O)ccc1NS(=O)(=O)c1csc(-c2ccc(C3=CCC(C(F)(F)F)CC3)cc2)n1 (centres unmarked) [Example 716]	< 100 nM
CCOc1c(C2CCC(C)(C)CC2)ccc(-c2nc(S(=O)(=O)Nc3cc(F)c(C(=O)O)cc3OC)cs2)c1F [Example 570]	< 100 nM
COc1cc(C(=O)O)ccc1NS(=O)(=O)c1csc(C#Cc2ccc(C#N)c(OC(F)(F)F)c2)n1 [Example 397]	< 100 nM
COc1cc(C(=O)O)ccc1NS(=O)(=O)c1ccc2ccc(S(=O)(=O)Nc3ccc(C(=O)O)cc3OC)cc2c1 [Example 162]	100 to 500 nM
COc1cc(C(=O)O)c(F)cc1NS(=O)(=O)c1csc(-c2ccc([C@H]3CC[C@H](C(F)(F)F)CC3)cc2)n1 [Example 509]	< 100 nM
COc1cc(C(=O)O)ccc1NS(=O)(=O)N1Cc2nc(-c3ccc([C@H]4CC[C@H](C(F)(F)F)CC4)cc3)sc2C1 [Example 460]	1000 to 100000 nM
COc1cc(C(=O)O)ccc1NS(=O)(=O)c1cnc(-c2ccc(F)cc2)s1 [Example 161]	100 to 500 nM
COc1cc(C(=O)O)ccc1NS(=O)(=O)c1ccc(-c2cccc(C)c2)s1 [Example 211]	< 100 nM
COc1cc(C(=O)O)c(F)cc1NS(=O)(=O)c1coc(-c2ccc([C@H]3CC[C@H](C(C)C)CC3)cc2C(F)(F)F)n1 [Example 674]	< 100 nM
COc1cc(C(=O)O)ccc1NS(=O)(=O)c1ccc(-c2cnc(-c3ccc(C4CCCCC4)cc3)s2)cc1 [Example 378]	1000 to 100000 nM
COc1cc(C(=O)O)ccc1NS(=O)(=O)c1ccc(F)c(-c2ccc(C3CCCCC3)cc2)c1 [Example 437]	100 to 500 nM
CC(C)(C)c1ccc(S(=O)(=O)NC(=O)c2ccc(NS(=O)(=O)c3cnc(-c4ccc(F)cc4)s3)cc2)cc1 [Example 31]	1000 to 100000 nM
COc1cc(C(=O)O)ccc1NS(=O)(=O)c1csc(C#CC2CCCC2)n1 [Example 217]	< 100 nM
COc1cc(C(=O)O)ccc1NS(=O)(=O)c1ccc(-c2ccc(-c3ccc(C)cc3)cc2)s1 [Example 199]	100 to 500 nM
COc1cc(C(=O)O)c(F)cc1NS(=O)(=O)c1nc(-c2ccc(C3CCC(C)(C)CC3)cc2)sc1C [Example 666]	100 to 500 nM
COc1cc(C(=O)O)c(F)cc1NS(=O)(=O)c1csc(-c2ccc([C@H]3CC[C@@H](C(C)C)CC3)c(F)c2C)n1 [Example 805]	< 100 nM
COc1cc(C(=O)O)ccc1NS(=O)(=O)c1cnc(C#Cc2ccccc2)s1 [Example 169]	100 to 500 nM
COc1cc(C(=O)O)ccc1NS(=O)(=O)c1csc(-c2cccc3c2CCCC3)n1 [Example 157]	100 to 500 nM
